SUBJECT OF TEST: Bst DNA polymerase (Geobacillus stearothermophilus, UniProt P52026)
Construct: purchased
Sequence (P52026 whole entry): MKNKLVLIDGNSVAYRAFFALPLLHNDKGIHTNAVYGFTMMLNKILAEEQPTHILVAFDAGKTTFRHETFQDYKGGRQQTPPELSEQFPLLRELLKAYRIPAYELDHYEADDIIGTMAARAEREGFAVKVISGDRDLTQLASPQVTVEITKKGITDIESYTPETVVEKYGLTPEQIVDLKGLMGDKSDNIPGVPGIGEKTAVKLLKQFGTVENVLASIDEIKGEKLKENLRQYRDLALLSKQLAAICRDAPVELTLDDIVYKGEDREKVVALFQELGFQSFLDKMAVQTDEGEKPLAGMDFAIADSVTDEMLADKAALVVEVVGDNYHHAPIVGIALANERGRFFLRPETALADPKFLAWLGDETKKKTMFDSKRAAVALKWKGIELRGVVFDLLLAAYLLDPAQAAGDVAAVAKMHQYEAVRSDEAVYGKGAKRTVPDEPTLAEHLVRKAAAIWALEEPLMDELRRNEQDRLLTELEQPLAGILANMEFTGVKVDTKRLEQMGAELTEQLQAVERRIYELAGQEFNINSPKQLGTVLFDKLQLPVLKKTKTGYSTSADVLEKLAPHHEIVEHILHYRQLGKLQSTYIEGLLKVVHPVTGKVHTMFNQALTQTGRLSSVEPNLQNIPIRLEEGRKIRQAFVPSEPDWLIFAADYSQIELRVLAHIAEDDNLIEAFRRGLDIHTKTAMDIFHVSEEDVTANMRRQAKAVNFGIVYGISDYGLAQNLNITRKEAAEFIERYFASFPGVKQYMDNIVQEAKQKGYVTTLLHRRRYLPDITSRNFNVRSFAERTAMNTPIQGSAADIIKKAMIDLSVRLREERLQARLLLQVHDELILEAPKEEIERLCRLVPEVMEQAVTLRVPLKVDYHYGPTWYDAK
PROTOCOL DETAILS: Polymerase end-point (PEP) assay, Bst
Format: biochemical
EXPERIMENTAL PARAMETERS: Bst: 65° C.; IC50 = incorporation concentration at 50%; Table 1; read-out: IC50 values
QUANTITY KIND: pIC50
Scale: pIC50 equals -log10([C]), with [C] in mol/L.

[[record]]
compound = "Nc1ncnc2c1ncn2[C@H]1CC[C@@H](COP(=O)(O)OP(=O)(O)OP(=O)(O)O)O1 [ddATP]"
quantity_kind = "pIC50"
reported_value = 6.43


API: the following record is the query input.
Endpoint output: pIC50 of O=[N+]([O-])c1ccccc1CNc1ncnc2c1ncn2[C@H]1C[C@H](O)[C@@H](COP(=O)(O)OP(=O)(O)OP(=O)(O)O)O1 [WW1p129] . Value?
7.68

---

Entries and their measured IC50 follow.
SUBJECT OF TEST: Taq DNA polymerase (Thermus aquaticus, UniProt P19821)
Sequence (P19821 whole entry): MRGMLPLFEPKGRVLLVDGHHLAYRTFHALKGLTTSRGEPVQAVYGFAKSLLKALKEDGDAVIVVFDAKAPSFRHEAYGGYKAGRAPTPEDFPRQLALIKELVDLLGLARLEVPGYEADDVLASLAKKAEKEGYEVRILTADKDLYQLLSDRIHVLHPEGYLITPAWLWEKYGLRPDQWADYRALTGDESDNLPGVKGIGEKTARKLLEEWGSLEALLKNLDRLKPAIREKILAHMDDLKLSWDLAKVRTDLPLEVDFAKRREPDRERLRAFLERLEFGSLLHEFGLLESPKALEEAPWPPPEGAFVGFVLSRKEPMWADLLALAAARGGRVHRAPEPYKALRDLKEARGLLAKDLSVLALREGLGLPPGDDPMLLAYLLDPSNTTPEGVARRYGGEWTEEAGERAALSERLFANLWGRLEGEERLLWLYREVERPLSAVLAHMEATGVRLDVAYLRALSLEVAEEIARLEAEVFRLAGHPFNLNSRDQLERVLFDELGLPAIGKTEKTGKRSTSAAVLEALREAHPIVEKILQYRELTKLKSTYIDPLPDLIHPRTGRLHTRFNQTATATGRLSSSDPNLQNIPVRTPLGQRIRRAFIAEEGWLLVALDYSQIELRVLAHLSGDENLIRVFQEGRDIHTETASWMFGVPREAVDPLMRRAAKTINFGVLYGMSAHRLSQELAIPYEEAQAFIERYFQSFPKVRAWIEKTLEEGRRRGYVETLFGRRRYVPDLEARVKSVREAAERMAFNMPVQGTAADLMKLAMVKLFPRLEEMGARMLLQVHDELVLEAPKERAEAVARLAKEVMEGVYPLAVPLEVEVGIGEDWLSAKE
I only need the number, in nM, no unit after it.

If you can, please state the reported IC50 value of Nc1ncnc2c1ncn2[C@H]1C[C@H](O)[C@@H](COP(=O)(O)OP(=O)(O)OP(=O)(O)O)O1 [dATP, 2′-deoxyadenosine triphosphate] .
5.5

Need IC50, item O=[N+]([O-])c1ccccc1CNc1ncnc2c1ncn2[C@H]1C[C@H](O)[C@@H](COP(=O)(O)OP(=O)(O)OP(=O)(O)O)O1
2100

Sample Nc1ncnc2c1ncn2[C@H]1CC[C@@H](COP(=O)(O)OP(=O)(O)OP(=O)(O)O)O1 — what was its IC50?
12600

---

SUBJECT OF TEST: T[…] polymerase (Thermococcus sp., UniProt Q56366, A485L/D141A/E143A)
Construct: purchased
Sequence (Q56366 whole entry D141A/E143A/A485L): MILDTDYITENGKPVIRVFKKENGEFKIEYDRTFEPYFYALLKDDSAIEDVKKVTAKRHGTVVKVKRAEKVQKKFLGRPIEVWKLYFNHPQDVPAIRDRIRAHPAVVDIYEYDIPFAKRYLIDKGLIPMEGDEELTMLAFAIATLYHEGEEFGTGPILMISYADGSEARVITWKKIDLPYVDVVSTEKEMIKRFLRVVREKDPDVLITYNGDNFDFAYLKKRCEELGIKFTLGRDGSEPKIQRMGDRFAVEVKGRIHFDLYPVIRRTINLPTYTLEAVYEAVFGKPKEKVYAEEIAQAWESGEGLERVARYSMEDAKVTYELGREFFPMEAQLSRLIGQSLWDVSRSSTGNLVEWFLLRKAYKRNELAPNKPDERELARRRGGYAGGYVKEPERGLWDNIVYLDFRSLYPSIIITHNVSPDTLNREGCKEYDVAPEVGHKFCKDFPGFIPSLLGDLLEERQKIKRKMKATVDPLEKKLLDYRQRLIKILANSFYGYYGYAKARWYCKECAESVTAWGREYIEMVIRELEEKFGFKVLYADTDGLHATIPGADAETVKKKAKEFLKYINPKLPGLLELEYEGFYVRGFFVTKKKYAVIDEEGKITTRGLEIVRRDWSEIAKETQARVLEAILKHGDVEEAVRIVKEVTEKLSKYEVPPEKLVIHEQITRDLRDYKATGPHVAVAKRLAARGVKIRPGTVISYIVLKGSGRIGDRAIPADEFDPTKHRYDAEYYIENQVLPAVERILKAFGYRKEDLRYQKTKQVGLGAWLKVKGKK
PROTOCOL DETAILS: Polymerase end-point (PEP) assay, Therminator
Assay type: biochemical, Thermococcus species 9°N-7
EXPERIMENTAL PARAMETERS: Table 2; incorporation concentration at 50%; read-out: IC50 values, Therminator
Recorded measurements of pIC50, one per entry
Please note pIC50 is a logarithmic value: minus log10 of concentration in mol/L. Answer with that number alone.

[[record]]
structure = "Nc1nc(OCc2ccccc2[N+](=O)[O-])c2ncn([C@H]3C[C@H](O)[C@@H](COP(=O)(O)OP(=O)(O)OP(=O)(O)O)O3)c2n1"
reported_value = 8.16

[[record]]
structure = "O=c1[nH]c(=O)n([C@H]2C[C@H](O)[C@@H](COP(=O)(O)OP(=O)(O)OP(=O)(O)O)O2)cc1COCc1ccccc1[N+](=O)[O-]"
reported_value = 8.96

[[record]]
structure = "CN(C)c1ccc2c(-c3cc(C(=O)NCC#Cc4ccc(CNc5ccn([C@H]6C[C@H](O)[C@@H](COP(=O)(O)OP(=O)(O)OP(=O)(O)O)O6)c(=O)n5)c([N+](=O)[O-])c4)ccc3C(=O)[O-])c3ccc(=[N+](C)C)cc-3oc2c1"
reported_value = 8.52


// switching to the query compound
Query: pIC50; subject: O=[N+]([O-])c1ccccc1CNc1ncnc2c1ncn2[C@H]1C[C@H](O)[C@@H](COP(=O)(O)OP(=O)(O)OP(=O)(O)O)O1
8.60

Each recorded value in this set is attributed to patent US7964352B2.
